assayed-system: T1, trypsin (UniProt P35030 81-304)
T1 sequence (looked up): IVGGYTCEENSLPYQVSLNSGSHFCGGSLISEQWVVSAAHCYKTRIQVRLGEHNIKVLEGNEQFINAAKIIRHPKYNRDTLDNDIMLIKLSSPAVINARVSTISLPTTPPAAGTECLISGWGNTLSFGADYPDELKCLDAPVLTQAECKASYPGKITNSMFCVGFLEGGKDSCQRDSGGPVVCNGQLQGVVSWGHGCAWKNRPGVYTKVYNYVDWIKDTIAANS
Square brackets hold non-standard residues; d marks the D form.
metric: Kd

Measured Kd, Ac-[dR][dA][dD][dA][dR][dA][dD][dA][dR][dA][dD][dA][dR][dA][dD][dA]-NH2 [Ac-(rada)4-NH2] : ~0.342 µM
